Could you please report measured protein stability index for the items listed next?
- test.protocol: protein stability index of a GFP-peptide fusion (GPS, HEK-293T) (PSI 1-6); higher = more stable;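 note: 24-mer peptide tiles fused after GFP, lentivirally expressed, FACS-sorted into six equal bins by GFP/DsRed ratio, decoded by Illumina sequencing, PSI is the read-weighted mean bin number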
- condition: treatment: DMSO; c terminus: a fixed tail appended
The response must contain the number and no unit.

In: Bench note: what protein stability index did EAVPARGEPQQDCCVKTELLGEET [EHMT1] show?
Out: 5.52

In: What measured protein stability index goes with ELRRDSSESQLASTESDKPTTGRV [C18orf25] ?
Out: 5.28

In: What does the data say about its protein stability index? Entry: TPLQSRTSIVQAAAGGVPGGGSNN [PDLIM7]
Out: 4.71

In: Returns the measured protein stability index for the input sequence. Input: QSQSLRDRARRFEEALRKNTEEQL [MTUS2]
Out: 4.88

In: Look up protein stability index: RTDPNGDYIRRYLPVLRGFPAKYI [CRY1]
Out: 2.27

In: // returns reported protein stability index for input EDSSLPSINALLQAEVLSRQITSP [HNF4A]
Out: 4.25

In: Look up protein stability index: TATDGGSPPLSTEAHFMLQVADIN [PCDHGA10]
Out: 4.18

In: I am curious: what protein stability index value has been reported for IVADILLYVVIPTRRSTAEAFQIV [SPNS1] ?
Out: 2.97

In: Sample NSYPRADTGLFSRSKSGSEEVLCD [TRIM29] — what was its protein stability index?
Out: 4.62

In: Would you kindly share the measured protein stability index for MNNAQRIEKWVILEKDFSIYGGEL [ACSBG2] ?
Out: 2.2

In: Record request: protein stability index value, item KQEQSIISEYEKSLQFDEKCLSIM [RPAIN]
Out: 3.67

In: Which measured protein stability index value corresponds to LVHIVCHKKTTHKLNCDPSRIYKP [DFFB] ?
Out: 2.41

In: I would be grateful if you could share the reported protein stability index for FEFSVDSFQIVLDPMLDFYSDKNA [TENT5D] .
Out: 2.91

In: For the sequence NGRKIMGKEVKVNWATTPSSQKKD [TIA1] , what protein stability index is on record?
Out: 4.43

In: # input sequence: KKHNVTAVVRLNKKIYEAKRFTDA [CDC14A] ; wanted: its protein stability index
Out: 2.73

In: I'd like to know its protein stability index. The sequence in question is SMVVPLLSLHVKSLGASPTVAGIV [MFSD9]
Out: 2.95

In: Which protein stability index value belongs to GFIKKFVLCPECENPETDLHVNPK [EIF5] ?
Out: 3.09

In: Quick one: protein stability index of KYEKLRGDVAIKLKFLEENKIKVM [ARFIP2] ?
Out: 2.22

In: Name the recorded protein stability index for FSHITSARKARKYEIPHFRLKKVE [PHTF1] .
Out: 2.53

In: Give the measured protein stability index of AQVPPAAPHHHHHHSHSGPEISRI [PLK2] .
Out: 4.09

In: Any idea what its protein stability index is? The sequence is VDSFETQRNGLVFIYDMCGSNYAN [PTPN9]
Out: 2.23

In: Please give the measured protein stability index for this sequence: EVMESEEFMLLPANQLIDIISSDE [KLHL20]
Out: 4.54

In: Item DRDAEDQNRYLDGMVRAHGVRVSV [BET1L] has what recorded protein stability index?
Out: 3.85

In: Please report the recorded protein stability index for QVTMRGLLSCLSKSNNRLKSLSIQ [FBXO39] .
Out: 2.21

In: Quick one: protein stability index for LKDTYASLGKTNVKDDELDAMLKE [MYL5] ?
Out: 5.28

In: Which measured protein stability index value corresponds to PIDGTTNFVHRFPFVAVSIGFAVN [IMPA1] ?
Out: 2.96

In: What does the data say about its protein stability index? Entry: NLRAAGAEALGKLLQQNKSIQSLT [LRRC45]
Out: 3.26
